SYSTEM UNDER TEST: recombinant human TFPI (tissue factor pathway inhibitor) (human, UniProt P10646 29-304)
PROTOCOL NOTES: cell-based or functional assay
RESULT TYPE: A405, TF/FVIIa/FX complex assay, Ab 25 nM
# respond with the number and nothing more

clone 13 (antibody, V domains shown) VH: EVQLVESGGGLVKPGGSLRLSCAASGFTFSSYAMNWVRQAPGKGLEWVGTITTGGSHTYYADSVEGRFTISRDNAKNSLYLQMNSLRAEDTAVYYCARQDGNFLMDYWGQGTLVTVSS VL: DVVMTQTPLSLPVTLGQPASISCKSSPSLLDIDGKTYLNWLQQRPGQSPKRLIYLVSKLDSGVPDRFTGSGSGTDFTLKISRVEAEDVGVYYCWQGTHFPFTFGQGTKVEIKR ... 0.528

### Prompt Tell me the measured A405, TF/FVIIa/FX complex assay, Ab 25 nM of clone 1023 (antibody, V domains shown, scFv on yeast at selection; human IgG4/kappa IgG as purified) VH: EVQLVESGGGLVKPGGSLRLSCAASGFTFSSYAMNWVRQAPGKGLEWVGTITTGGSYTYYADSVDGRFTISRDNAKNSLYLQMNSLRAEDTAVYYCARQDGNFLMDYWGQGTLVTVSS VL: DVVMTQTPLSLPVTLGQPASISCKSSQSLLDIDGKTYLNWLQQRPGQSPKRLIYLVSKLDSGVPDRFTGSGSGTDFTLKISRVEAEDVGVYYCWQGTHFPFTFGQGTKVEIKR , please.
### Response 0.371

### Prompt Tell me the measured A405, TF/FVIIa/FX complex assay, Ab 25 nM of clone 12 (antibody, V domains shown, human IgG4/kappa IgG as purified; also called No. 12 antibody) VH: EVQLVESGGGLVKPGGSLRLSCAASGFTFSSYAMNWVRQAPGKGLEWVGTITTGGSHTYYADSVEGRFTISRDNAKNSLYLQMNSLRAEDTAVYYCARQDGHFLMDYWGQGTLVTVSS VL: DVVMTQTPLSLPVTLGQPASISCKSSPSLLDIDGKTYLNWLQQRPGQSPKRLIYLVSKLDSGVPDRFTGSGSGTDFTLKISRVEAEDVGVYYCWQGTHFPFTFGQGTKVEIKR , please.
### Response 0.489

### Prompt Tell me the measured A405, TF/FVIIa/FX complex assay, Ab 25 nM of clone 1202 (antibody, V domains shown, scFv on yeast at selection; human IgG4/kappa IgG as purified; also called No. 1202 antibody) VH: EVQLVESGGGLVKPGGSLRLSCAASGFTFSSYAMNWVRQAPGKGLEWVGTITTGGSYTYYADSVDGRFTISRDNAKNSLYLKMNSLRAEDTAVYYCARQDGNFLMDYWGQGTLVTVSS VL: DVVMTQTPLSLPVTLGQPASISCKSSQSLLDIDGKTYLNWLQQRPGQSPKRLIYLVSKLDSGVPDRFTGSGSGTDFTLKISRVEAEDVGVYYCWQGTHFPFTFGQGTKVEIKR , please.
### Response 0.509

Where do the numbers come from? From patent US20180030151A1.
